- Tested on: biotinyl-Trp-oxazolone
- procedureSummary: self-aminoacylation, catalytic enhancement (BWO) (fold over background); higher = more active; k-Seq, kA / k0A0; sequences stand for … in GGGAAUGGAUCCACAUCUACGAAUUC…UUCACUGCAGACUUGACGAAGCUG
Fewer inactive variants are shown than the library holds.
I'd be grateful if you could share measured self-aminoacylation for these entries.
// no unit string in output, number only

query: Can you share its self-aminoacylation? I mean this sequence: CUACUUCCAACAAUCGGGCUG [Fam1A.1 aminoacylation ribozyme variant]
result: 0.982

query: Can you share its self-aminoacylation? I mean this sequence: ACGUUUGCUAAUAGUCUCAAG [Fam3.1 aminoacylation ribozyme variant]
result: 2.15

query: Can you share its self-aminoacylation? I mean this sequence: AUAACCAUGGUCAUCGAGUGA [Fam2.1 aminoacylation ribozyme variant]
result: 8.43

query: Can you share its self-aminoacylation? I mean this sequence: AAGUCAGCUAAUAGUCGCAAG [Fam3.1 aminoacylation ribozyme variant]
result: 3.06

query: Can you share its self-aminoacylation? I mean this sequence: CUAUUUCAAACAUUCGGUCUG [Fam1A.1 aminoacylation ribozyme variant]
result: 1.16

query: Can you share its self-aminoacylation? I mean this sequence: CUCCUUCAAACAAUCGCUCUG [Fam1A.1 aminoacylation ribozyme variant]
result: 2.01

query: Can you share its self-aminoacylation? I mean this sequence: GUACUUCAAACAUUCGGUCUG [Fam1A.1 aminoacylation ribozyme variant]
result: 2.34

query: Can you share its self-aminoacylation? I mean this sequence: AUUCACCUAUGUCAGCGGGUG [Fam2.2 aminoacylation ribozyme variant]
result: 3.73

query: Can you share its self-aminoacylation? I mean this sequence: CUUACCCUGGUCAACGAGUGA [Fam2.1 aminoacylation ribozyme variant]
result: 6.73
